For each entry below, report its inhibition value.
molecular target: Histone deacetylase 3 (Homo sapiens); details: at 20 µM;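 also: recombinant enzyme assay with Boc-Lys(Ac)-AMC substrate, fluorescence read on a microplate reader after 30–60 min incubation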
Description: Inhibition of human recombinant HDAC3 at 20 uM using Boc-Lys(Ac)-AMC as substrate after 30 to 60 mins by microplate reader assay
Number in %, nothing else.

Reported inhibition for O=C(O)c1coc(-c2ccccc2O)n1 was 38.7

Reported inhibition ( O=C(O)c1ccc(CNC(=O)c2coc(-c3ccccc3O)n2)cc1 ) = 39.7

GET /value?item= O=C(Nc1ccccc1)c1ccc(CNC(=O)c2coc(-c3ccccc3O)n2)cc1 &field=inhibition returns 15.8

The compound listed as O=C(NCCCCNCCC(c1ccccc1)c1ccccc1)c1coc(-c2ccccc2O)n1 has a reported inhibition of 18.1

Lookup result for O=C(NCCCCNC(=S)NCCC(c1ccccc1)c1ccccc1)c1coc(-c2ccccc2O)n1 ; measured inhibition: 3.7

The compound listed as O=C(CNC(=O)c1coc(-c2ccccc2O)n1)Nc1ccccc1 has a reported inhibition of 36.9

Recorded inhibition (compound O=C(NO)C(c1ccccc1)c1ccccc1 ): 76.4

Measured inhibition, O=C(NCc1ccc(-c2ccccc2)cc1)c1coc(-c2ccccc2O)n1 : 40.1

Field inhibition (entry COC(=O)c1coc(-c2ccccc2O)n1 ) reads 39.1

compound O=C(NCCCCN1C(=O)c2ccccc2C1=O)c1coc(-c2ccccc2O)n1 , inhibition observed: 11

inhibition in this record for O=C(NCCc1c[nH]c2ccccc12)c1coc(-c2ccccc2O)n1 : 18.9

###

target: Histone deacetylase 2 (Homo sapiens) (UniProt Q92769); conditions: at 20 µM
Sequence (Q92769 whole entry): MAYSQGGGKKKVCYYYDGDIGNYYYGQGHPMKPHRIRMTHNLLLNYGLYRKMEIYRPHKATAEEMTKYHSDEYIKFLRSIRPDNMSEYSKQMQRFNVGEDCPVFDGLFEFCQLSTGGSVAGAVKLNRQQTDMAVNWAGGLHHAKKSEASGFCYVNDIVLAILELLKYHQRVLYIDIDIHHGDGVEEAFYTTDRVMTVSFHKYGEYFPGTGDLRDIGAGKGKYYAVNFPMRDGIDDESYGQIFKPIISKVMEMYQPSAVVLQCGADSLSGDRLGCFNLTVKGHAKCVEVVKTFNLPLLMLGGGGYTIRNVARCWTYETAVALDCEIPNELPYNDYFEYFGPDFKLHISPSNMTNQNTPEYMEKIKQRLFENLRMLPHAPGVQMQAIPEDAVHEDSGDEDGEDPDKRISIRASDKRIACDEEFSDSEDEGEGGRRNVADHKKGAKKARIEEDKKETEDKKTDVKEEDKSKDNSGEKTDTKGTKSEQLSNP
Description: Inhibition of human recombinant HDAC2 at 20 uM using Boc-Lys(Ac)-AMC as substrate after 30 to 60 mins by microplate reader assay
measured_property: inhibition (%)
Answer format: numeric, % implied, no suffix.

Please fill in: inhibition reported for O=C(NCCCCNCCC(c1ccccc1)c1ccccc1)c1coc(-c2ccccc2O)n1 = 19.7

The reported value for O=C(NCCc1c[nH]c2ccccc12)c1coc(-c2ccccc2O)n1 in terms of inhibition is 36

Recorded inhibition (molecule O=C(O)c1ccc(CNC(=O)c2coc(-c3ccccc3O)n2)cc1 ): 56.5

Item: O=C(NC(c1ccccc1)c1ccccc1)c1coc(-c2ccccc2O)n1 | inhibition: 54.1

# inhibition (molecule: O=C(NCCC(c1ccccc1)c1ccccc1)c1coc(-c2ccccc2O)n1 ) is 28.7

Sure, the documented inhibition for O=C(Nc1ccccc1)c1coc(-c2ccccc2O)n1 is 29.5

GET /value?item= O=C(NCc1ccc(-c2ccccc2)cc1)c1coc(-c2ccccc2O)n1 &field=inhibition returns 52.2

###

target: Histone deacetylase 2 (Homo sapiens); settings: at 20 µM;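 also: recombinant enzyme activity measured with the fluorogenic acetylated lysine substrate Boc-Lys(Ac)-AMC, read on a microplate reader after 30–60 min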
param class (str): category from inhibition; see ranges lo (below 30%), med (30% to below 40%), hi (40% or more)

Inquiry: State the class of the molecule shown: O=C(Nc1ccccc1)c1ccc(CNC(=O)c2coc(-c3ccccc3O)n2)cc1
Reply text: hi

Inquiry: Which inhibition band matches O=C(NCCCCN1C(=O)c2ccccc2C1=O)c1coc(-c2ccccc2O)n1 ?
Reply text: lo

Inquiry: Dear colleague, I would appreciate it if you could identify the bin for O=C(NCc1cccc2ccccc12)c1coc(-c2ccccc2O)n1 and reply at your convenience.
Reply text: hi

Inquiry: Where would CC(/C=C/C(=O)NO)=C\[C@@H](C)C(=O)c1ccc(N(C)C)cc1 land among the classes by reported inhibition?
Reply text: hi

Inquiry: Where would O=C(NCCCCNC(=O)C(c1ccccc1)c1ccccc1)c1coc(-c2ccccc2O)n1 land among the classes by reported inhibition?
Reply text: lo

Inquiry: Looking at O=C(NCCCCNC(=S)NCCC(c1ccccc1)c1ccccc1)c1coc(-c2ccccc2O)n1 , which class would you pick?
Reply text: lo

Inquiry: Using the reported inhibition, which band applies to O=C(Nc1ccc(-c2ccccc2)cc1)c1coc(-c2ccccc2O)n1 ?
Reply text: med

Inquiry: Using the reported inhibition, which band applies to O=C(CNC(=O)c1coc(-c2ccccc2O)n1)Nc1ccccc1 ?
Reply text: med

Inquiry: Sort O=C(O)c1coc(-c2ccccc2O)n1 into one of the categories.
Reply text: hi

Inquiry: Input O=C(NCC(c1ccccc1)c1ccccc1)c1coc(-c2ccccc2O)n1 ; output its category
Reply text: med
